Molecular target: T1, GFP-9S library array, motif 4 ND N98Y;D124P (synthetic construct, N98Y;D124P)
T1 chain: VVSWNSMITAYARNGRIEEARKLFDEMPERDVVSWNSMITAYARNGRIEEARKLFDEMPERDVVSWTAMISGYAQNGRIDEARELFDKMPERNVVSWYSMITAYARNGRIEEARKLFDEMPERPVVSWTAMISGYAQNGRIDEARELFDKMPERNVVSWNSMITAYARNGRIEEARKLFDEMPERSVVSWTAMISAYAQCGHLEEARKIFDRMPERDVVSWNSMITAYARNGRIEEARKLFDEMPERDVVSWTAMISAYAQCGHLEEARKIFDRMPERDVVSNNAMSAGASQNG
Assay: high-throughput RNA pulldown from lysate on Ni-NTA beads; HRP: 50 mM Tris pH 8, 150 mM NaCl, 1 mM beta-mercaptoethanol, 50 ug/ml BSA, 3 ug/ml yeast RNA, 0.5% heparin; ITC and FP: Tris pH 8, 200 mM KCl, 5% glycerol; MST: 50 mM Tris pH 8, 200 mM NaCl, 1 mM DTT, BSA, heparin, 0.05% Tween 20
Details: tags: N-terminal His-eGFP; label: 5' IRDye 800CW
PROPERTY_NAME: pKd
On this scale, pKd is minus log10 of a concentration expressed in M (mol/L).

AUUAUACGUGA (ssRNA) [IR-rpoA-U]
6.80

Now let's try a different one.
Query: Look up and report measured pKd for this entry: AUUAAACGUGA (ssRNA) [IR-rpoA-A]
Reply: 6.66
